B1: POMT2 (parent)
chain: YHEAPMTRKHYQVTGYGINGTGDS

Variants of: B1
method: protein stability index of a GFP-peptide fusion (GPS, HEK-293T) (PSI 1-6); higher = more stable;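 also: lentivirally expressed fusions sorted by FACS into six bins by GFP to DsRed ratio, PSI derived from sequencing read proportions per bin multiplied by bin number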
run conditions: c terminus: a fixed tail appended
For each entry below, report its protein stability index value.
Give bare numbers.

Use the examples below as a reference point.
INSERT INTO results (mutation_annotation, recorded_number) VALUES
  ('I18P', 2.36),
  ('G15P', 2.86);

Here are 4 variants. What values of protein stability index were reported for them?
1. G17V
2. K9A
3. S24G
4. T21I

1. 2.08
2. 2.31
3. 2.57
4. 1.37

Below is a list of variants. For each, state its recorded protein stability index.
1. V13C
2. S24C
3. H2P

[2.14, 1.81, 2.99]
